The measured values listed here are drawn from paper PMC3218832.

Molecular target: p52p52 homodimer (Homo sapiens, UniProt Q00653 4-332)
Sequence: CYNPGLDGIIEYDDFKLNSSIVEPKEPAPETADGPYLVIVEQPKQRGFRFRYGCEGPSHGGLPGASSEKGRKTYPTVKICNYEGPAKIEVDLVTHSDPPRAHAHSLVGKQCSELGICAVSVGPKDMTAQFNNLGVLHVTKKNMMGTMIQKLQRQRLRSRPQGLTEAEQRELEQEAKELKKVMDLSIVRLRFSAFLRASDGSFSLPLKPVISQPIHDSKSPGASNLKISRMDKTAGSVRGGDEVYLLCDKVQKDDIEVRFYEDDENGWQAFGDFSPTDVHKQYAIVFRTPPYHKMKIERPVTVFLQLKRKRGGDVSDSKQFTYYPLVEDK
Assay: protein binding microarray; high values mean tight binding
Conditions: dsDNA, one strand shown
For each entry below, report its binding signal value.
Numbers only here, please. The scale is z-score.

### Prompt Quick one: give measured binding signal for `CAATTACCCCT`
### Response 0.863

### Prompt Quick one: give measured binding signal for `GGGAACGCCCT`
### Response 0.394

### Prompt Quick one: give measured binding signal for `GAGGTAGTCCC`
### Response 0.506

### Prompt Quick one: give measured binding signal for `CGAGTTCTCCC`
### Response -0.0592

### Prompt Quick one: give measured binding signal for `CAAAAATCCCC`
### Response 2.67

### Prompt Quick one: give measured binding signal for `CAAATTCCCCC`
### Response 2.63

### Prompt Quick one: give measured binding signal for `AAGAGGCTCCC`
### Response -0.505

### Prompt Quick one: give measured binding signal for `AAGTGTTCCCC`
### Response 0.928

### Prompt Quick one: give measured binding signal for `GAAGGTGCCCT`
### Response -0.486

### Prompt Quick one: give measured binding signal for `CGGTATCCCCC`
### Response 2.07

### Prompt Quick one: give measured binding signal for `CAGTAATTCCC`
### Response 0.804

### Prompt Quick one: give measured binding signal for `CAAGAAACCCT`
### Response -0.245

### Prompt Quick one: give measured binding signal for `AGAGACCTCCC`
### Response -0.531

### Prompt Quick one: give measured binding signal for `GGAAGAGCCCT`
### Response -0.649

### Prompt Quick one: give measured binding signal for `GGGTACCTCCC`
### Response 1.06

### Prompt Quick one: give measured binding signal for `GGAGTCGTCCT`
### Response -0.582

### Prompt Quick one: give measured binding signal for `CAAAACACCCC`
### Response 0.313

### Prompt Quick one: give measured binding signal for `CGAGGCACCCT`
### Response -0.572

### Prompt Quick one: give measured binding signal for `GGGGGCGCCCT`
### Response 1.68

### Prompt Quick one: give measured binding signal for `GAATTTACCCT`
### Response 0.839
